This document collects log10 MIC values reported for Proteus Vulgaris.
Please note: log10 values; quantity MIC; unit µg/mL.

Previously resolved entries follow.
CC(C)(O/N=C(\C(=O)N[C@H]1CN(C(=O)NS(=O)(=O)N2CCN(C(=O)c3cc(=O)c(O)c[nH]3)CC2=O)C1=O)c1csc(N)n1)C(=O)O	-0.60
Cn1c(-c2cc(=O)c(O)c[nH]2)nn(S(=O)(=O)NC(=O)N2C[C@H](NC(=O)/C(=N\OC(C)(C)C(=O)O)c3csc(N)n3)C2=O)c1=O	-1.52
CC(C)(O/N=C(\C(=O)N[C@H]1CN(C(=O)NS(=O)(=O)N2CCN(NC(=O)c3ccn(O)c(=O)c3)C2=O)C1=O)c1csc(N)n1)C(=O)O	-1.52
Nc1nc(C(=NOCC(=O)O)C(=O)NC2CN(C(=O)NS(=O)(=O)N3CC(CNC(=O)c4cc(=O)c(O)c[nH]4)OC3=O)C2=O)cs1 (stereo not shown)	-0.30
CC(C)(ON=C(C(=O)NC1CN(C(=O)NS(=O)(=O)N2CC(CNC(=O)c3cc(=O)c(O)c[nH]3)OC2=O)C1=O)c1csc(N)n1)C(=O)O (stereo not shown)	-0.30
CC(C)(O/N=C(\C(=O)N[C@H]1CN(C(=O)NS(=O)(=O)n2nc(-c3cc(=O)c(O)c[nH]3)[nH]c2=O)C1=O)c1csc(N)n1)C(=O)O	-1.52
Nc1nc(/C(=N/OCC(=O)O)C(=O)N[C@H]2CN(C(=O)NS(=O)(=O)N3CCN(C(=O)c4cc(=O)c(O)c[nH]4)CC3)C2=O)cs1	0.60
Cn1cc(O)c(=O)cc1C(=O)NN1CCN(S(=O)(=O)NC(=O)N2C[C@H](NC(=O)/C(=N\OC(C)(C)C(=O)O)c3csc(N)n3)C2=O)C1=O	-0.30
CC(C)(O/N=C(\C(=O)N[C@H]1CN(C(=O)NS(=O)(=O)N2CCN(NC(=O)c3cccc(=O)n3O)C2=O)C1=O)c1csc(N)n1)C(=O)O	-1.22
Nc1nc(/C(=N/OCC(=O)O)C(=O)N[C@H]2CN(C(=O)NS(=O)(=O)N3CCN(NC(=O)c4[nH]ccc(=O)c4O)C3=O)C2=O)cs1	-0.60

[Q] Fill blank: measured log10 MIC of the molecule CCCCn1cc(O)c(=O)cc1C(=O)NN1CCN(S(=O)(=O)NC(=O)N2C[C@H](NC(=O)/C(=N\OC(C)(C)C(=O)O)c3csc(N)n3)C2=O)C1=O is ____.
[A] -0.60

[Q] Fill blank: measured log10 MIC of the molecule CC(C)(O/N=C(\C(=O)N[C@H]1CN(C(=O)NS(=O)(=O)N2CCN(NC(=O)c3cc(=O)c(O)cn3C3CC3)C2=O)C1=O)c1csc(N)n1)C(=O)O is ____.
[A] 0.30

[Q] Fill blank: measured log10 MIC of the molecule CC(C)(O/N=C(\C(=O)N[C@H]1CN(C(=O)NS(=O)(=O)N2CCN(C(=O)c3cc(=O)c(O)c[nH]3)NC2=O)C1=O)c1csc(N)n1)C(=O)O is ____.
[A] -1.22
